- target: ligand binding domain of human FXR (Homo sapiens (Human), UniProt Q96RI1)
- Sequence (Q96RI1 262-486): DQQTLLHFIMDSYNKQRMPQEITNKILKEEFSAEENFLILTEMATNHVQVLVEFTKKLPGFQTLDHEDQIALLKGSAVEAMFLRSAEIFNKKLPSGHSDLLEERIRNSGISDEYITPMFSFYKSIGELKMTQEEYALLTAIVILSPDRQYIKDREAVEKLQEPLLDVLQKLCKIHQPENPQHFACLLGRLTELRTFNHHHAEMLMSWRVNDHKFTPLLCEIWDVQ
- assayText: FXR ligand binding assay (LanthaScreen TR-FRET, SRC2-2 peptide recruitment)
- testParameters: extent of activation relative to GW4064; read-out: % Efficacy
recordedMetric: Emax (%)

>>> df
                                   compound  recordedmeasurement
0  O=C(O)C1(c2ccc(N3C[C@@H]4C[C@H]3C[C@H]4OCc3c(-c4c(Cl)cccc4Cl)noc3C3CC3)cc2)CCC1 [Compound I-150]                  102
1  C[C@@H]1[C@@H]2C[C@@H](C[C@H]2OCc2c(-c3c(Cl)cccc3Cl)noc2C2CC2)N1c1ccc(C(=O)O)c(F)c1 [Compound I-362]                   72
2  CCOCCOCCS(=O)(=O)NC(=O)c1ccc(N2C[C@@H]3C[C@H]2C[C@H]3OCc2c(-c3c(Cl)cccc3Cl)noc2C2CC2)c(F)c1 [Compound I-193]                  138

----------
Item-by-item account of EC50
- target: human Farnesoid X receptor ligand-binding domain/Gal4 DNA binding domain chimera (Homo sapiens (Human))
- Sequence (Q96RI1 262-486, change not shown): as the sequence (Q96RI1 262-486) above
- Sequence (P04386 1-147 partner): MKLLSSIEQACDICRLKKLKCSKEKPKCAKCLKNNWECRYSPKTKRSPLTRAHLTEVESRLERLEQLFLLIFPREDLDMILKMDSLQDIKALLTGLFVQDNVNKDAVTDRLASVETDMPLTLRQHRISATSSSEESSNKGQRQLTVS
- assayText: Cell-based assay of FXR activation (FXR-UAS-bla HEK 293T beta-lactamase reporter)
- testParameters: cellular FXR beta-lactamase reporter assay, FXR-UAS-bla HEK 293T cells, 16 h; pEC50 = -log EC50
recordedMetric: EC50 (nM)

                                        mol  recordedmetric  recordedmeasurement
0  O=C(O)c1cc(F)c(N2C[C@@H]3C[C@H]2C[C@H]3OCc2c(-c3c(Cl)cccc3Cl)noc2C2CC2)c(F)c1            EC50                0.316
1  O=C(NS(=O)(=O)C1CCOCC1)c1ccc(N2C(=O)[C@@H]3C[C@H]2C[C@H]3OCc2c(-c3c(Cl)cccc3Cl)noc2C2CC2)cc1F            EC50                0.316
2  O=C(O)c1cc(C2CC2)c2nc(N3C(=O)[C@@H]4C[C@H]3C[C@H]4OCc3c(-c4c(Cl)cccc4Cl)noc3C3CC3)sc2c1            EC50                    1
3  O=C(O)CCc1ccc(N2C[C@@H]3C[C@H]2C[C@H]3OCc2c(-c3c(Cl)cccc3Cl)noc2C2CC2)c(F)c1            EC50                0.501
4  O=C(O)c1ccc(N2C[C@@H]3C[C@H]2C[C@H]3OCc2c(-c3c(Cl)cccc3Cl)noc2C2CC2)nc1            EC50                 3.16
5  O=C(O)c1cc([C@@H]2CCOC2)c2nc(N3C[C@@H]4C[C@H]3C[C@H]4OCc3c(-c4c(Cl)cccc4Cl)noc3C3CC3)sc2c1            EC50                  0.2

----------
- target: ligand binding domain of human FXR (Homo sapiens (Human), UniProt Q96RI1)
- assayText: FXR ligand binding assay (LanthaScreen TR-FRET, SRC2-2 peptide recruitment)
- testParameters: extent of activation relative to GW4064
Item-by-item account of % Efficacy
recordedMetric: % Efficacy (%)

>>> df
                                        mol                                    target  readoutunit  recordedmeasurement
0  O=C(O)c1cc([C@@H]2C[C@H]3CC[C@@H](C2)O3)c2nc(N3C[C@@H]4C[C@H]3C[C@H]4OCc3c(-c4c(Cl)cccc4Cl)noc3C3CC3)sc2c1  ligand binding domain of human FXR (Homo sapiens (Human), UniProt Q96RI1)            %                  157
1  O=C(NS(=O)(=O)C1CC1)c1ccc(N2C[C@@H]3C[C@H]2C[C@H]3OCc2c(-c3ccccc3C(F)(F)F)noc2C2CC2)c(F)c1  ligand binding domain of human FXR (Homo sapiens (Human), UniProt Q96RI1)            %                  215
2  O=C(NS(=O)(=O)[C@H]1CC[C@@H](O)CC1)c1ccc(N2C[C@@H]3C[C@H]2C[C@H]3OCc2c(-c3c(Cl)cccc3Cl)noc2C2CC2)cc1  ligand binding domain of human FXR (Homo sapiens (Human), UniProt Q96RI1)            %                  154
3  O=C(NS(=O)(=O)[C@H]1CC[C@H](O)CC1)c1ccc(N2C[C@@H]3C[C@H]2C[C@H]3OCc2c(-c3c(Cl)cccc3Cl)noc2C2CC2)cc1  ligand binding domain of human FXR (Homo sapiens (Human), UniProt Q96RI1)            %                  147
4  O=C(O)c1cc([C@H]2C[C@H]3CC[C@@H](C2)O3)c2nc(N3C[C@@H]4C[C@H]3C[C@H]4OCc3c(-c4c(Cl)cccc4Cl)noc3C3CC3)sc2c1  ligand binding domain of human FXR (Homo sapiens (Human), UniProt Q96RI1)            %                  150

----------
- target: ligand binding domain of human FXR (Homo sapiens (Human), UniProt Q96RI1)
- assayText: FXR ligand binding assay (LanthaScreen TR-FRET, SRC2-2 peptide recruitment)
- testParameters: extent of activation relative to GW4064; read-out: % Efficacy
Item-by-item account of Emax
recordedMetric: Emax (%)

compound	target	readoutUnit	recordedMeasurement
Cc1cccc(C)c1-c1noc(C2CC2)c1CO[C@@H]1C[C@@H]2C[C@H]1C(=O)N2c1ccc(C(=O)O)cc1	ligand binding domain of human FXR (Homo sapiens (Human), UniProt Q96RI1)	%	150
Cc1cccc(Cl)c1-c1noc(C2CC2)c1CO[C@@H]1C[C@@H]2C[C@H]1CN2c1nc2c([C@H]3CCOC3)cc(C(=O)O)cc2s1	ligand binding domain of human FXR (Homo sapiens (Human), UniProt Q96RI1)	%	132
COc1ccccc1-c1noc(C2CC2)c1CO[C@@H]1C[C@@H]2C[C@H]1CN2c1nc2c(F)cc(C(=O)O)cc2s1	ligand binding domain of human FXR (Homo sapiens (Human), UniProt Q96RI1)	%	188
O=C(O)c1cc(F)c2nc(N3C[C@@H]4C[C@H]3C[C@H]4OCc3c(-c4ccccc4C(F)(F)F)noc3C3CC3)sc2c1	ligand binding domain of human FXR (Homo sapiens (Human), UniProt Q96RI1)	%	178
O=C(O)C1CCc2cc(N3C(=O)[C@@H]4C[C@H]3C[C@H]4OCc3c(-c4c(Cl)cccc4Cl)noc3C3CC3)ccc21 (stereo partly drawn)	ligand binding domain of human FXR (Homo sapiens (Human), UniProt Q96RI1)	%	149
O=C(O)c1cc(OC(F)(F)F)c2nc(N3C[C@@H]4C[C@H]3C[C@H]4OCc3c(C4CCOCC4)noc3C3CC3)sc2c1	ligand binding domain of human FXR (Homo sapiens (Human), UniProt Q96RI1)	%	85
Cc1cccc(Cl)c1-c1noc(C2CC2)c1CO[C@@H]1C[C@@H]2C[C@H]1CN2c1nc2c(OC3CC3)cc(C(=O)O)cc2s1	ligand binding domain of human FXR (Homo sapiens (Human), UniProt Q96RI1)	%	150
O=C(O)c1cc(OC(F)(F)F)c2nc(N3C[C@@H]4C[C@H]3C[C@H]4OC(=O)c3c(-c4ccccc4C(F)(F)F)noc3C3CC3)sc2c1	ligand binding domain of human FXR (Homo sapiens (Human), UniProt Q96RI1)	%	172
O=C(O)c1cc(C2CCCC2)c2nc(N3C[C@@H]4C[C@H]3C[C@H]4OCc3c(-c4c(Cl)cccc4Cl)noc3C3CC3)sc2c1	ligand binding domain of human FXR (Homo sapiens (Human), UniProt Q96RI1)	%	128
CC(=O)OCCS(=O)(=O)NC(=O)c1ccc(N2C[C@@H]3C[C@H]2C[C@H]3OCc2c(-c3c(Cl)cccc3Cl)noc2C2CC2)cc1	ligand binding domain of human FXR (Homo sapiens (Human), UniProt Q96RI1)	%	152
COCC(=O)NCCCCCCCCCCS(=O)(=O)NC(=O)c1ccc(N2C[C@@H]3C[C@H]2C[C@H]3OCc2c(-c3c(Cl)cccc3Cl)noc2C2CC2)c(F)c1	ligand binding domain of human FXR (Homo sapiens (Human), UniProt Q96RI1)	%	166
O=C(NS(=O)(=O)C1CC1)c1ccc(N2C[C@@H]3C[C@H]2C[C@H]3OCc2c(-c3c(Cl)cccc3Cl)noc2C2CC2)nc1	ligand binding domain of human FXR (Homo sapiens (Human), UniProt Q96RI1)	%	142
CCCCCS(=O)(=O)NC(=O)c1ccc(N2C[C@@H]3C[C@H]2C[C@H]3OCc2c(-c3c(Cl)cccc3Cl)noc2C2CC2)c(F)c1	ligand binding domain of human FXR (Homo sapiens (Human), UniProt Q96RI1)	%	163
CCCS(=O)(=O)NC(=O)c1ccc(N2C[C@@H]3C[C@H]2C[C@H]3OC(=O)c2c(-c3c(Cl)cccc3Cl)noc2C2CC2)cc1	ligand binding domain of human FXR (Homo sapiens (Human), UniProt Q96RI1)	%	174
O=C(O)c1cc([C@H]2CCOC2)c2nc(N3C[C@@H]4C[C@H]3C[C@H]4OCc3c(-c4c(Cl)cccc4Cl)noc3C3CC3)sc2c1	ligand binding domain of human FXR (Homo sapiens (Human), UniProt Q96RI1)	%	140
Cc1cc(C(=O)O)ccc1N1C[C@@H]2C[C@H]1C[C@H]2OCc1c(-c2c(Cl)cccc2Cl)noc1C1CC1	ligand binding domain of human FXR (Homo sapiens (Human), UniProt Q96RI1)	%	122
O=C(NS(=O)(=O)C1CCOCC1)c1ccc(N2C(=O)[C@@H]3C[C@H]2C[C@H]3OCc2c(-c3c(Cl)cccc3Cl)noc2C2CC2)cc1F	ligand binding domain of human FXR (Homo sapiens (Human), UniProt Q96RI1)	%	150
O=C(NS(=O)(=O)C1CC1)c1ccc(N2C[C@@H]3C[C@H]2C[C@H]3OC(=O)c2c(-c3c(Cl)cccc3Cl)noc2C2(F)CC2)c(F)c1	ligand binding domain of human FXR (Homo sapiens (Human), UniProt Q96RI1)	%	146
O=C(NS(=O)(=O)CC1CCOC1)c1ccc(N2C(=O)[C@@H]3C[C@H]2C[C@H]3OCc2c(-c3c(Cl)cccc3Cl)noc2C2CC2)cc1F (stereo partly drawn)	ligand binding domain of human FXR (Homo sapiens (Human), UniProt Q96RI1)	%	172
O=C(O)c1cc(C2CCCOCC2)c2nc(N3C[C@@H]4C[C@H]3C[C@H]4OCc3c(-c4c(Cl)cccc4Cl)noc3C3CC3)sc2c1 (stereo partly drawn)	ligand binding domain of human FXR (Homo sapiens (Human), UniProt Q96RI1)	%	146
O=C(NS(=O)(=O)C1CC1)c1ccc(N2C[C@@H]3C[C@H]2C[C@H]3OCc2c(-c3c(Cl)cccc3Cl)noc2C2CC2)c(F)c1	ligand binding domain of human FXR (Homo sapiens (Human), UniProt Q96RI1)	%	188
O=C(NS(=O)(=O)CCCCCCCCCCNC(=O)[C@H](O)[C@@H](O)[C@H](O)[C@H](O)CO)c1ccc(N2C[C@@H]3C[C@H]2C[C@H]3OCc2c(-c3c(Cl)cccc3Cl)noc2C2CC2)c(F)c1	ligand binding domain of human FXR (Homo sapiens (Human), UniProt Q96RI1)	%	144
O=C(O)C1CC(c2ccc(N3C[C@@H]4C[C@H]3C[C@H]4OCc3c(-c4c(Cl)cccc4Cl)noc3C3CC3)cc2)C1 (stereo partly drawn)	ligand binding domain of human FXR (Homo sapiens (Human), UniProt Q96RI1)	%	134
O=C(O)c1cc(C2CCOCC2)c2nc(N3C(=O)[C@@H]4C[C@H]3C[C@H]4OCc3c(-c4c(Cl)cccc4Cl)noc3C3CC3)sc2c1	ligand binding domain of human FXR (Homo sapiens (Human), UniProt Q96RI1)	%	133
